The measured values listed here are drawn from patent US5360909A.

Reported IC50 is given for each of the following compounds.
# System: thromboxane A2 (TXA2)
# Assay explanation: Antagonistic effect to TXA2: contraction of isolated guinea pig tracheal strips
# Format: cell-based, Hartley male guinea pigs
# Condition info: Cavia porcellus, in vitro, TXA2 10^-7 M, Tyrode solution 37° C.
Kindly answer with a numeric value in µM, unit omitted.

CCCc1c(OCCCC(=O)Nc2cc(CCNS(=O)(=O)c3ccc(Cl)cc3)ccc2OCC(=O)O)ccc(C(C)=O)c1O [Example 6]; 0.0082

Kindly indicate its recorded IC50. Item: CCCc1c(OCCCCC(=O)Nc2cc(CCNS(=O)(=O)c3ccc(Cl)cc3)ccc2OCC(=O)O)ccc(C(C)=O)c1O [Example 7]
0.019

Kindly indicate its recorded IC50. Item: O=C(O)COc1ccc(CCNS(=O)(=O)c2ccc(Cl)cc2)c(OCc2ccc3ccccc3n2)c1 [Example 3]
0.0035

Kindly indicate its recorded IC50. Item: O=C(O)COc1ccc(CCNS(=O)(=O)c2ccc(Cl)cc2)c(OCc2cccc(OCc3ccc4ccccc4n3)c2)c1 [Example 4]
0.59
